Numbers sourced from paper PMC10397247.

# TGT: T1, 4H3354-bN
# T1 chain: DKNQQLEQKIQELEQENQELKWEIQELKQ
# ASSAY_TEXT: two-hybrid library CCNG1;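 note: natural log of median RNA to DNA barcode read ratio; higher means stronger binding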
READOUT_TYPE: interaction score

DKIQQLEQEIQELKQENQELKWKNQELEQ [4H2143-bN] :: -2.78

A = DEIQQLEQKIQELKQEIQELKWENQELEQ [4H331-bN]
B = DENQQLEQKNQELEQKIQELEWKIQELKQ [4H1446-bN]
[Q] Field: lower recorded interaction score (choose A or B ) Answer = label.
[A] B

P = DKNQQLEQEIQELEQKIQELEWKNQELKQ [4H3112-bN]
Q = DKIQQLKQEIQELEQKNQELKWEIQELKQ [4H2618-bN]
[Q] Field: lower recorded interaction score (choose P or Q ) Answer = label.
[A] Q

P = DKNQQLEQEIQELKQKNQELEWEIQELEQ [4H3185-bN]
Q = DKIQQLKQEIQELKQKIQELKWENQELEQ [4H2667-bN]
[Q] Field: lower recorded interaction score (choose P or Q ) Answer = label.
[A] Q
(Q: -1.12, P: -0.593)
